# Test system: Actinomyces viscosus (JCM8352)
# experiment_description: Growth inhibition activity (MIC, agar) against anaerobic bacteria
# Assay type: cell-based
# particulars: Actinomyces viscosus, 72 h; strain JCM8352; Trypticase Soy Broth agar, 37 degrees C. for 3 days; read-out: MIC (Minimum Inhibitory Concentration)
observed_property: MIC (mg/L)

# example entries with known answers
compound: CC1CCC(C(C)C)C(OCCO)C1 (stereo not shown) [CA5, 2-(menthoxy)ethanol]
unit_info: mg/L
MIC: 200
//
compound: CC1CCC(C(C)C)C(OCCCO)C1 (stereo not shown) [CA15, 3-menthoxypropan-1-ol]
unit_info: mg/L
MIC: 200

a = CC(O)CC(=O)OC1CC(C)CCC1C(C)C [(3S)-CA20, menthyl 3-hydroxybutanoate]
b = CC1CCC(C(C)C)C(OCCOCCO)C1 (stereo not shown) [CA55, 2-(2-menthoxyethoxy)ethanol]
c = CC1CCC(C(C)C)C(O)C1 (stereo not drawn) [l-menthol, menthol, reference compound]
d = CC1CCC(C(C)C)C(OC(=O)C=O)C1 (stereo not shown) [CA MGH, menthyl glyoxylate]
Challenge: Hey, quick one: sort these by MIC, low to high? Please respond with the labels ordered as the question requires.
Response given: a, d, b, c
(a: 100 mg/L, d: 200 mg/L, b: 800 mg/L, c: 1600 mg/L)
